test system: SU-DHL-2; experiment: Cancer cell line panel proliferation (CellTiter-Glo); type: cell-based; conditions: Homo sapiens; SU-DHL-2, Blood/Lymphoma, 72 hours
assay-endpoint: pIC50
# pIC50 = -log10(concentration in molar units)

[Q] Give its pIC50 value. Item: CN(C)CCNC(=O)c1ccc(-c2ccc(-c3ccc(Cl)cc3)n2-c2ccccc2C(F)(F)F)cc1 (single isomer, unassigned) [Atropisomer A-2]
[A] 6.70

* * *

test system: NCI-H1299; assay: Cancer cell line panel proliferation (CellTiter-Glo); assay type: cell-based; conditions: Homo sapiens; NCI-H1299, Lung, 72 hours
assay-endpoint: IC50 (nM)
Write it as a number; the unit nM goes unstated.

[Q] Request body: readout IC50, system NCI-H1299, query CN(C)CCNC(=O)c1ccc(-c2ccc(-c3ccc(Cl)cc3)n2-c2ccccc2C(F)(F)F)cc1 (single isomer, unassigned) [Atropisomer A-2] . Return the value.
[A] 370

* * *

Tested on: NAMALWA
Experiment: Cancer cell line panel proliferation (CellTiter-Glo)
Format: cell-based
Details: Blood/Lymphoma, 72 hours
Method: Screening against diverse cancer cell lines was performed to identify tumour types displaying sensitivity to atropisomers A-1 and A-2. A panel of 48 cancer-derived cell lines was screened in a high-throughput proliferation assay using dilutions of atropisomers A-1/A-2. […] IC50 values were calculated by fitting the dose-response data using a nonlinear regression model.
assay-endpoint: IC50

[Q] Give its IC50 value. Item: CN(C)CCNC(=O)c1ccc(-c2ccc(-c3ccc(Cl)cc3)n2-c2ccccc2C(F)(F)F)cc1 (single isomer, unassigned; atropisomer a) [Atropisomer A-1]
[A] 7.05 µM

[Q] Another molecule to check: CN(C)CCNC(=O)c1ccc(-c2ccc(-c3ccc(Cl)cc3)n2-c2ccccc2C(F)(F)F)cc1 (single isomer, unassigned) [Atropisomer A-2]
[A] 0.25 µM

* * *

tested on: MV-4-11; test: Cancer cell line panel proliferation (CellTiter-Glo); type: cell-based; details: MV-4-11, Blood/Leukaemia, 72 hours
assay-endpoint: IC50 (µM)
Write it as a number; the unit µM goes unstated.

[Q] Give its IC50 value. Item: CN(C)CCNC(=O)c1ccc(-c2ccc(-c3ccc(Cl)cc3)n2-c2ccccc2C(F)(F)F)cc1 (single isomer, unassigned; atropisomer a) [Atropisomer A-1]
[A] 6.49

* * *

tested on: NCI-H1792; assay: Cancer cell line panel proliferation (CellTiter-Glo); assay type: cell-based; conditions: NCI-H1792, Lung, 72 hours
assay-endpoint: pIC50
# pIC50 = -log10(concentration in molar units)

[Q] Give its pIC50 value. Item: CN(C)CCNC(=O)c1ccc(-c2ccc(-c3ccc(Cl)cc3)n2-c2ccccc2C(F)(F)F)cc1 (single isomer, unassigned; atropisomer a) [Atropisomer A-1]
[A] 5.11

* * *

system: HCC44; assay: Cancer cell line panel proliferation (CellTiter-Glo); assay type: cell-based; conditions: Homo sapiens; HCC44, Lung, 72 hours
assay-endpoint: pIC50
# pIC50 = -log10(concentration in molar units)

[Q] Give its pIC50 value. Item: CN(C)CCNC(=O)c1ccc(-c2ccc(-c3ccc(Cl)cc3)n2-c2ccccc2C(F)(F)F)cc1 (single isomer, unassigned) [Atropisomer A-2]
[A] 6.32

* * *

tested on: NCI-H1792; experiment: Cancer cell line panel proliferation (CellTiter-Glo); assay type: cell-based; conditions: Homo sapiens; NCI-H1792, Lung, 72 hours
assay-endpoint: IC50 (nM)
Write it as a number; the unit nM goes unstated.

[Q] Give its IC50 value. Item: CN(C)CCNC(=O)c1ccc(-c2ccc(-c3ccc(Cl)cc3)n2-c2ccccc2C(F)(F)F)cc1 (single isomer, unassigned) [Atropisomer A-2]
[A] 250
